Target: Adenosine receptor A2b (Homo sapiens)
Sequence (P29275 whole entry): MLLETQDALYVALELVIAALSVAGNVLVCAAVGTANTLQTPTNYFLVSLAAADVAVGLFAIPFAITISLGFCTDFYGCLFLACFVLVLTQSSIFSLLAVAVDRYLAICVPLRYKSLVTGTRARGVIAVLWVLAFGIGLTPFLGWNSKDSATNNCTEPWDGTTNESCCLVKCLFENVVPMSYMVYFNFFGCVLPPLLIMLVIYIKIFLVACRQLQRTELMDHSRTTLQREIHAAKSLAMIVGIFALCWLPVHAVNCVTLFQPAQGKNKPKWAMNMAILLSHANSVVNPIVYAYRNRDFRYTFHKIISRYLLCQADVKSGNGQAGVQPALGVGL
Test: Displacement of [3H]DPCPX from human Adenosine A2B receptor expressed in HEK293 cells after 30 mins
Format: cell-based
Overview of recorded pKi for various compounds
Just so you know, pKi here is -log10 of the concentration in molar units; reply with that number alone.

The cases that follow already have their pKi on record.
query: Can you share its pKi? I mean this compound: CC1=C(C(=O)OC(C)C)C(c2ccoc2)n2c(nc3ccccc32)N1 (racemic)
result: 7.94

query: Can you share its pKi? I mean this compound: CC1=C(C(=O)OC(C)C)C(c2ccco2)n2ccnc2N1 (racemic)
result: 7.07

query: Can you share its pKi? I mean this compound: CCOC(=O)C1=C(C)Nc2nc3ccccc3n2C1c1ccco1 (racemic)
result: 7.92

query: Can you share its pKi? I mean this compound: CCOC(=O)C1=C(C)Nc2nccn2C1c1ccco1 (racemic)
result: 6.97

query: Can you share its pKi? I mean this compound: CC1=C(C(=O)OC(C)C)C(c2ccoc2)n2ccnc2N1 (racemic)
result: 6.56

query: Can you share its pKi? I mean this compound: CC1=C(C(=O)OC(C)C)C(c2ccsc2)n2ncnc2N1 (racemic)
result: 6.09

query: Can you share its pKi? I mean this compound: CCOC(=O)C1=C(C)Nc2nc3ccccc3n2C1c1ccoc1 (racemic)
result: 7.69

query: Can you share its pKi? I mean this compound: CC1=C(C(=O)OC(C)C)C(c2ccco2)n2ncnc2N1 (racemic)
result: 7.25

query: Can you share its pKi? I mean this compound: CC1=C(C(=O)OC(C)C)C(c2ccsc2)n2c(nc3ccccc32)N1 (racemic)
result: 7.53

Next up:
query: Can you share its pKi? I mean this compound: CCOC(=O)C1=C(C)Nc2nc3ccccc3n2C1c1cccs1 (racemic)
result: 6.31

---

Overview of recorded Activity for various molecules
Target: UniProt:P0DMS8
Sequence (P0DMS8 whole entry): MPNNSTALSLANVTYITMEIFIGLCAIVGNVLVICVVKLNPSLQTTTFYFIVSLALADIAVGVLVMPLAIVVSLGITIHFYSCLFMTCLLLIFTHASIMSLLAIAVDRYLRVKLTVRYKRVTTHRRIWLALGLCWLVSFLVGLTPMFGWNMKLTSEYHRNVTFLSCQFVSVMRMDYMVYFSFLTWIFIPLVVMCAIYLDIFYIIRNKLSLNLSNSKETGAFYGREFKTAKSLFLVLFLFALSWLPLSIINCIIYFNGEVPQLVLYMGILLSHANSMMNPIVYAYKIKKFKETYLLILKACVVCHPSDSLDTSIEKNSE
Assay: Displacement of [3H]NECA from human Adenosine A3 receptor expressed in HeLa cells at 1 uM after 180 mins
The reply should contain only the number, in %.

query: Tell me reported Activity for CC1=C(C(=O)OC(C)C)C(c2cccs2)n2ncnc2N1 (racemic) , tested with UniProt:P0DMS8.
result: 3

query: Tell me reported Activity for O=C1NC2=C(C(=O)OC2)C(c2ccco2)N1 (racemic) , tested with UniProt:P0DMS8.
result: 3

query: Tell me reported Activity for CCOC(=O)C1=C(C)NC(=O)NC1c1ccoc1 (stereo unspecified) , tested with UniProt:P0DMS8.
result: 1

query: Tell me reported Activity for CC1=C(C(=O)OC(C)C)C(c2ccco2)n2ccnc2N1 (racemic) , tested with UniProt:P0DMS8.
result: 2

query: Tell me reported Activity for CCOC(=O)C1=C(C)NC(=O)CC1c1cccs1 (racemic) , tested with UniProt:P0DMS8.
result: 21

query: Tell me reported Activity for CCOC(=O)C1=C(C)NC(=O)CC1c1ccco1 (racemic) , tested with UniProt:P0DMS8.
result: 24

query: Tell me reported Activity for CCOC(=O)C1=C(C)Nc2nc3ccccc3n2C1c1ccco1 (racemic) , tested with UniProt:P0DMS8.
result: 1

query: Tell me reported Activity for CC1=C(C(=O)OC(C)C)C(c2ccco2)n2ncnc2N1 (racemic) , tested with UniProt:P0DMS8.
result: 2

query: Tell me reported Activity for CCOC(=O)C1=C(C)Nc2nc3ccccc3n2C1c1ccoc1 (racemic) , tested with UniProt:P0DMS8.
result: 1

query: Tell me reported Activity for CCOC(=O)C1=C(C)NC(=O)CC1c1ccoc1 (racemic) , tested with UniProt:P0DMS8.
result: 15

Next up:
query: Tell me reported Activity for CC1=C(C(=O)OC(C)C)C(c2ccoc2)n2ncnc2N1 (racemic) , tested with UniProt:P0DMS8.
result: 20

---

Molecular target: Adenosine receptor A2a (Homo sapiens)
Assay: Displacement of [3H]ZM241385 from human Adenosine A2A receptor expressed in HeLa cells at 1 uM after 30 mins
Assay type: cell-based
readout.kind: Activity (%)
The reply should contain only the number, in %.

The cases that follow already have their Activity on record.
query: Tell me reported Activity for CCOC(=O)C1=C(C)Nc2ncnn2C1c1ccsc1 (racemic) , tested with Adenosine receptor A2a (Homo sapiens).
result: 21

query: Tell me reported Activity for CCOC(=O)C1=C(C)NC(=O)CC1c1cccs1 (racemic) , tested with Adenosine receptor A2a (Homo sapiens).
result: 11

query: Tell me reported Activity for CC1=C(C(=O)OC(C)C)C(c2ccco2)NC(=O)N1 (stereo not given) , tested with Adenosine receptor A2a (Homo sapiens).
result: 30

query: Tell me reported Activity for CCOC(=O)C1=C(C)Nc2nccn2C1c1ccoc1 (racemic) , tested with Adenosine receptor A2a (Homo sapiens).
result: 1

query: Tell me reported Activity for CCN1CC2=C(C1=O)C(c1ccco1)NC(=O)N2 (racemic) , tested with Adenosine receptor A2a (Homo sapiens).
result: 7

---
query: Tell me reported Activity for CCOC(=O)C1=C(C)Nc2nc3ccccc3n2C1c1cccs1 (racemic) , tested with Adenosine receptor A2a (Homo sapiens).
result: 16

query: Tell me reported Activity for CCOC(=O)C1=C(C)Nc2nc3ccccc3n2C1c1ccsc1 (racemic) , tested with Adenosine receptor A2a (Homo sapiens).
result: 10

query: Tell me reported Activity for CC1=C(C(=O)OC(C)C)C(c2ccsc2)NC(=O)N1 (stereo not given) , tested with Adenosine receptor A2a (Homo sapiens).
result: 25

query: Tell me reported Activity for CC1=C(C(=O)OC(C)C)C(c2cccs2)n2ccnc2N1 (racemic) , tested with Adenosine receptor A2a (Homo sapiens).
result: 3

query: Tell me reported Activity for CC1=C(C(=O)OC(C)C)C(c2ccsc2)n2c(nc3ccccc32)N1 (racemic) , tested with Adenosine receptor A2a (Homo sapiens).
result: 3

query: Tell me reported Activity for CC1=C(C(=O)OC(C)C)C(c2cccs2)n2ncnc2N1 (racemic) , tested with Adenosine receptor A2a (Homo sapiens).
result: 1

query: Tell me reported Activity for O=C1NC2=C(C(=O)OC2)C(c2ccco2)N1 (racemic) , tested with Adenosine receptor A2a (Homo sapiens).
result: 2

query: Tell me reported Activity for CC1=C(C(=O)OC(C)C)C(c2ccsc2)CC(=O)N1 (racemic) , tested with Adenosine receptor A2a (Homo sapiens).
result: 3

query: Tell me reported Activity for CCOC(=O)C1=C(C)NC(=O)NC1c1cccs1 (stereo not given) , tested with Adenosine receptor A2a (Homo sapiens).
result: 33

query: Tell me reported Activity for CCOC(=O)C1=C(C)Nc2ncnn2C1c1cccs1 (racemic) , tested with Adenosine receptor A2a (Homo sapiens).
result: 2

---

Biological target: Adenosine receptor A2b (Homo sapiens)
Assay: Displacement of [3H]DPCPX from human Adenosine A2B receptor expressed in HEK293 cells at 1 uM after 30 mins
Type: cell-based
Category scheme (Activity): bucket A = under 8%, bucket B = from 8% up to 20%, bucket C = 20% and over

Worked examples, 4 compounds total:
query: Which band does CCN1CC2=C(C1=O)C(c1ccco1)NC(=O)N2 (racemic) fall in?
result: bucket B

query: Which band does CCOC(=O)C1=C(C)Nc2nccn2C1c1ccsc1 (racemic) fall in?
result: bucket B

query: Which band does CCOC(=O)C1=C(C)NC(=O)CC1c1ccoc1 (racemic) fall in?
result: bucket B

query: Which band does CC1=C(C(=O)OC(C)C)C(c2cccs2)NC(=O)N1 (configuration not stated) fall in?
result: bucket C

---
query: Which band does CCOC(=O)C1=C(C)NC(=O)CC1c1cccs1 (racemic) fall in?
result: bucket B

query: Which band does CCOC(=O)C1=C(C)NC(=O)NC1c1cccs1 (configuration not stated) fall in?
result: bucket C

query: Which band does CCOC(=O)C1=C(C)Nc2nccn2C1c1ccoc1 (racemic) fall in?
result: bucket B

query: Which band does CC1=C(C(=O)OC(C)C)C(c2cccs2)n2ncnc2N1 (racemic) fall in?
result: bucket A

query: Which band does CCN1CC2=C(C1=O)C(c1cccs1)NC(=O)N2 (racemic) fall in?
result: bucket C

query: Which band does O=C1NC2=C(C(=O)OC2)C(c2ccco2)N1 (racemic) fall in?
result: bucket A

---

Overview of recorded Activity for various compounds
Target: UniProt P29274
Sequence (P29274 whole entry): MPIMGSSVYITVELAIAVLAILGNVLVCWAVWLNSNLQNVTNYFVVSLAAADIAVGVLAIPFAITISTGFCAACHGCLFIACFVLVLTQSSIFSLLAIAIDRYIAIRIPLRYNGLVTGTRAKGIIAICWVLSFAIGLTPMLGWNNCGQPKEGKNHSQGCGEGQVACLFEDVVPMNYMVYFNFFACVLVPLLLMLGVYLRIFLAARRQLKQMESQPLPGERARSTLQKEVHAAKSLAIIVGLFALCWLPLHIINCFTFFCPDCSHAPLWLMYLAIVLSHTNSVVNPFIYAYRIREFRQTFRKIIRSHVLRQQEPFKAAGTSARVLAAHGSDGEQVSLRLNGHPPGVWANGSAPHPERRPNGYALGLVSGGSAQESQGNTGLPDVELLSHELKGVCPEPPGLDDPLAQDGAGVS
Assay: Displacement of [3H]ZM241385 from human Adenosine A2A receptor expressed in HeLa cells at 1 uM after 30 mins
Assay type: cell-based
The reply should contain only the number, in %.

query: Can you share its Activity? I mean this compound: CC1=C(C(=O)OC(C)C)C(c2ccoc2)n2ccnc2N1 (racemic)
result: 4

query: Can you share its Activity? I mean this compound: CCOC(=O)C1=C(C)Nc2ncnn2C1c1ccoc1 (racemic)
result: 1

query: Can you share its Activity? I mean this compound: CCOC(=O)C1=C(C)NC(=O)CC1c1ccco1 (racemic)
result: 13

query: Can you share its Activity? I mean this compound: CCOC(=O)C1=C(C)Nc2nccn2C1c1cccs1 (racemic)
result: 2

query: Can you share its Activity? I mean this compound: CC1=C(C(=O)OC(C)C)C(c2ccco2)n2c(nc3ccccc32)N1 (racemic)
result: 25

---
query: Can you share its Activity? I mean this compound: CCOC(=O)C1=C(C)NC(=O)NC1c1ccoc1 (stereo not drawn)
result: 39

query: Can you share its Activity? I mean this compound: CC1=C(C(=O)OC(C)C)C(c2ccoc2)n2c(nc3ccccc32)N1 (racemic)
result: 22

query: Can you share its Activity? I mean this compound: CC1=C(C(=O)OC(C)C)C(c2ccco2)n2ccnc2N1 (racemic)
result: 4

query: Can you share its Activity? I mean this compound: CC1=C(C(=O)OC(C)C)C(c2ccsc2)n2ncnc2N1 (racemic)
result: 2

query: Can you share its Activity? I mean this compound: CCOC(=O)C1=C(C)NC(=O)CC1c1ccsc1 (racemic)
result: 4

query: Can you share its Activity? I mean this compound: CCN1CC2=C(C1=O)C(c1cccs1)NC(=O)N2 (racemic)
result: 2

query: Can you share its Activity? I mean this compound: O=C1NC2=C(C(=O)OC2)C(c2ccsc2)N1 (racemic)
result: 3

query: Can you share its Activity? I mean this compound: CCN1CC2=C(C1=O)C(c1ccoc1)NC(=O)N2 (racemic)
result: 13

Origin of the recorded values: ChEMBL document CHEMBL3784997
